measurement.target: T1, recombinant soluble human TREM2 protein (human TREM2 ECD-FlagHis) (human, UniProt Q9NZC2 19-174)
T1 sequence: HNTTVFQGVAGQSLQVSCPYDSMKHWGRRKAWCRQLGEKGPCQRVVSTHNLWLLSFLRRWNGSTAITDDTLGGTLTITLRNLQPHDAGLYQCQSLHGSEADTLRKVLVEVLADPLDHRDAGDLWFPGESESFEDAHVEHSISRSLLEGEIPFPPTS
test.details: Octet BLI binning; competitor: load Ab 13E7
attribute.measured: sandwich binding signal

6E7 (antibody, human IgG2, V domains shown, human IgG2 from hybridoma) VH: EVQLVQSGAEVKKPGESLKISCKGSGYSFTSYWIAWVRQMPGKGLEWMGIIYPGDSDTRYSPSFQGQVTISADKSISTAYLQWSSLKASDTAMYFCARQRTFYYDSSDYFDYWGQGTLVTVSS VL: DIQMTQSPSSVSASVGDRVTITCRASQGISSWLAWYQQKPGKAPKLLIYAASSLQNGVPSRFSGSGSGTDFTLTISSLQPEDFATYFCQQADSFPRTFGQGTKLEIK    0.051
26C10 (antibody, human IgG2, V domains shown, human IgG2 from hybridoma) VH: EVQLVESGGALVQPGGSLRLSCAASGFTFSSFGMSWVRQAPGKGLEWVSYISSSSFTIYYADSVKGRFTISRDNAKNSFYLQMNSLRDEDTAVYFCVREGGITMVRGVSSYGMDVWGQGTTVTVSS VL: SFELTQPPSVSVSPGQTASITCSGDKLGDKYVCWYQQKPGQSPMLVIYQDTKRPSGIPERFSGSNSGNTATLTISGTQAMDEADYYCQAWDSSTVVFGGGTKLTVL    0.323
10E3 (antibody, human IgG2, V domains shown, human IgG2 from hybridoma) VH: EVQLVQSGAEVKKPGESLMISCKGSGYSFTNYWIGWVRQMPGKGLEWMGIIYPGDSDTRYSPSFQGQVTISADKSISTAYLQWSSLKASDTAMYFCARRRQGIWGDALDIWGQGTLVTVSS VL: EIVMTQSPATLSVSPGERATLSCRASQSVSSNLAWFQQKPGQAPRLLIYGASTRATGIPARFSVSGSGTEFTLTISSLQSEDFAFYYCLQDNNWPPTFGPGTKVDIK    -0.019
